# experiment notes: Cytotoxicity against mouse RAW264.7 cells assessed as cell viability at 10 uM incubated for 48 hrs by CCK8 assay
# Format: toxicity, cell-based
# experimental setup: read-out: Activity
Consider the cut-off 90%. If the recorded viability at 48 h, 10 µM is strictly smaller, the label is rule met; if not, the label is rule not met.

>  <compound>
C[C@@]12C[C@H]3OC(=O)[C@@H]1CO[C@@]14O[C@@]5([C@H]2C1=O)[C@@]3(C)OC(=O)[C@@]5(O)CC[C@H]1[C@H]4C[C@@H](O)[C@@]2(Cl)CC=CC(=O)[C@]12C

>  <classification>
rule not met

$$$$
>  <compound>
C=C1C(=O)O[C@@H]2C[C@@]1(C)[C@@H]1C(=O)[C@@]3(O)O[C@]14[C@@]2(C)OC(=O)[C@@]4(O)CC[C@H]1[C@H]3C[C@@H](O)[C@@]2(O)CC=CC(=O)[C@]12C

>  <classification>
rule not met

$$$$
>  <compound>
C=C1C(=O)O[C@@H]2C[C@@]1(C)[C@@H]1C(=O)[C@@]3(O)O[C@]14[C@@]2(C)OC(=O)[C@@]4(O)CC[C@H]1[C@H]3C[C@@H](O)[C@@]2(OC)CC=CC(=O)[C@]12C

>  <classification>
rule not met

$$$$
>  <compound>
C[C@]12C(=O)C=CCC1=CC[C@@H]1[C@@H]2CC[C@]2(O)C(=O)O[C@@]3(C)[C@H]4C[C@]5(C)[C@@H](CO[C@@]16O[C@@]32[C@H]5C6=O)C(=O)O4 [PHYSALIN B]

>  <classification>
rule not met

$$$$
>  <compound>
C=C1C(=O)O[C@@H]2C[C@@]1(C)[C@@H]1C(=O)[C@@]3(O)O[C@]14[C@@]2(C)OC(=O)[C@@]4(O)CC[C@H]1[C@H]3C[C@H]2O[C@]23CC=CC(=O)[C@]13C

>  <classification>
rule met

$$$$
>  <compound>
O=C(CCCCCCC(=O)Nc1ccccc1)NO [VORINOSTAT]

>  <classification>
rule met

$$$$
>  <compound>
C[C@]12C(=O)C=CCC1=CC[C@@H]1[C@@H]2CC[C@]2(O)C(=O)O[C@@]3(C)[C@H]4C[C@@]5(C)[C@@H]6C(=O)[C@@]1(OC[C@@]5(O)C(=O)O4)O[C@@]632

>  <classification>
rule not met

$$$$
>  <compound>
C[C@]12C(=O)CC=CC1=CC[C@@H]1[C@@H]2CC[C@]2(O)C(=O)O[C@@]3(C)[C@H]4C[C@]5(C)[C@@H](CO[C@]16O[C@@]32[C@H]5C6=O)C(=O)O4

>  <classification>
rule not met

$$$$

----------
Measured IC50 at 48 h values are reported for all entries that follow.
# experiment notes: Cytotoxicity against mouse RAW264.7 cells assessed as reduction in cell viability incubated for 48 hrs by CCK8 assay
# Format: toxicity, cell-based
property label: IC50 at 48 h

>  <compound structure>
C[C@@]12C[C@H]3OC(=O)[C@@H]1CO[C@@]14O[C@@]5([C@H]2C1=O)[C@@]3(C)OC(=O)[C@@]5(O)CC[C@H]1[C@H]4C[C@H](O)[C@]2(O)CC=CC(=O)[C@]12C

>  <assay result>
> 50 µM

$$$$
>  <compound structure>
C=C1C(=O)O[C@@H]2C[C@@]1(C)[C@@H]1C(=O)[C@@]3(O)O[C@]14[C@@]2(C)OC(=O)[C@@]4(O)CC[C@H]1[C@H]3[C@H](O)C=C2CC=CC(=O)[C@@]21C

>  <assay result>
> 50 µM

$$$$
>  <compound structure>
C[C@@H]1C(=O)O[C@@H]2C[C@@]1(C)[C@@H]1C(=O)[C@@]3(O)O[C@]14[C@@]2(C)OC(=O)[C@@]4(O)CC[C@H]1[C@H]3C[C@@H](O)[C@@]2(O)CC=CC(=O)[C@]12C

>  <assay result>
> 50 µM

$$$$

----------
# experiment notes: Cytotoxicity against human L02 cells assessed as reduction in cell viability incubated for 48 hrs by CCK8 assay
# Format: toxicity, cell-based
property label: IC50 at 48 h

>  <compound>
C[C@@]12C[C@H]3OC(=O)[C@@H]1CO[C@@]14O[C@]56[C@H]2[C@]1(O)[C@H](C[C@]5(O)C(=O)O[C@@]36C)[C@H]1[C@H]4CC(O)[C@]2(O)CC=CC(=O)[C@]12C (some centres not stated)

>  <assay result>
> 50 µM

$$$$
>  <compound>
C[C@@]12C[C@H]3OC(=O)[C@@H]1CO[C@@]14O[C@@]5([C@H]2C1=O)[C@@]3(C)OC(=O)[C@@]5(O)CC[C@H]1[C@H]4C[C@@H](O)[C@@]2(OC(=O)c3cccnc3)CC=CC(=O)[C@]12C

>  <assay result>
> 50 µM

$$$$
>  <compound>
C[C@]12C(=O)C=CC=C1[C@@H](O)C[C@@H]1[C@@H]2CC[C@@]2(O)C(=O)O[C@@]3(C)[C@H]4C[C@]5(C)[C@@H](CO[C@@]16O[C@]23[C@H]5C6=O)C(=O)O4

>  <assay result>
> 50 µM

$$$$
>  <compound>
C[C@@]12C[C@H]3OC(=O)[C@@H]1CO[C@@]14O[C@]56[C@H]2[C@]1(O)[C@H](C[C@]5(O)C(=O)O[C@@]36C)[C@H]1[C@H]4CC[C@]2(O)CC=CC(=O)[C@]12C

>  <assay result>
> 50 µM

$$$$
>  <compound>
C[C@@]12C[C@H]3OC(=O)[C@@H]1CO[C@]14C(=O)O[C@@]5([C@H]21)[C@@]3(C)OC(=O)[C@@]5(O)CC[C@H]1[C@H]4CC[C@@]2(O)CC=CC(=O)[C@]12C

>  <assay result>
> 50 µM

$$$$
>  <compound>
CO[C@]12C=CCC(=O)[C@]1(C)[C@H]1CC[C@]3(O)C(=O)O[C@@]4(C)[C@H]5C[C@]6(C)[C@@H](CO[C@]7(O[C@@]43[C@H]6C7=O)[C@@H]1C[C@H]2O)C(=O)O5

>  <assay result>
> 50 µM

$$$$
>  <compound>
COC(=O)CCC(=O)O[C@]12CC=CC(=O)[C@]1(C)[C@H]1CC[C@]3(O)C(=O)O[C@@]4(C)[C@H]5C[C@]6(C)[C@@H](CO[C@]7(O[C@@]43[C@H]6C7=O)[C@@H]1C[C@H]2O)C(=O)O5

>  <assay result>
> 50 µM

$$$$

----------
# experiment notes: Cytotoxicity against human L02 cells assessed as cell viability at 10 uM incubated for 48 hrs by CCK8 assay
# Assay type: toxicity, cell-based
# experimental setup: read-out: Activity
Each entry below carries its recorded viability at 48 h, 10 µM.

>  <compound structure>
C=C1C(=O)O[C@@H]2C[C@@]1(C)[C@@H]1C(=O)[C@@]3(O)O[C@]14[C@@]2(C)OC(=O)[C@@]4(O)CC[C@H]1[C@H]3C[C@@H](O)[C@@]2(O)CC=CC(=O)[C@]12C

>  <viability at 48 h, 10 µM [%]>
97.5

$$$$
>  <compound structure>
C[C@@]12C[C@H]3OC(=O)[C@@H]1CO[C@@]14O[C@@]5([C@H]2C1=O)[C@@]3(C)OC(=O)[C@@]5(O)CC[C@H]1[C@H]4C[C@@H](O)[C@@]2(Cl)CC=CC(=O)[C@]12C

>  <viability at 48 h, 10 µM [%]>
95.3

$$$$
>  <compound structure>
C[C@]12C(=O)C=CCC1=CC[C@@H]1[C@@H]2CC[C@]2(O)C(=O)O[C@@]3(C)[C@H]4C[C@]5(C)[C@@H](CO[C@@]16O[C@@]32[C@H]5C6=O)C(=O)O4

>  <viability at 48 h, 10 µM [%]>
97.8

$$$$
>  <compound structure>
C=C1C(=O)O[C@@H]2C[C@@]1(C)[C@@H]1C(=O)[C@@]3(O)O[C@]14[C@@]2(C)OC(=O)[C@@]4(O)CC[C@H]1[C@H]3C[C@@H](O)[C@@]2(OC)CC=CC(=O)[C@]12C

>  <viability at 48 h, 10 µM [%]>
98.1

$$$$
>  <compound structure>
C=C1C(=O)O[C@@H]2C[C@@]1(C)[C@@H]1C(=O)[C@@]3(O)O[C@]14[C@@]2(C)OC(=O)[C@@]4(O)CC[C@H]1[C@H]3CC=C2C=CCC(=O)[C@@]21C

>  <viability at 48 h, 10 µM [%]>
95.4

$$$$

----------
# experiment notes: Cytotoxicity against human L02 cells assessed as cell viability at 10 uM incubated for 48 hrs by CCK8 assay
# Assay type: toxicity, cell-based
# experimental setup: read-out: Activity
Parameter viability at 48 h, 10 µM: see the listing below.
property label: viability at 48 h, 10 µM (%)

>  <molecule>
C=C1C(=O)O[C@@H]2C[C@@]1(C)[C@@H]1C(=O)[C@@]3(O)O[C@]14[C@@]2(C)OC(=O)[C@@]4(O)CC[C@H]1[C@H]3C[C@@H](O)C2=CC=CC(=O)[C@@]21C

>  <unit abbreviation>
%

>  <assay result>
95.2

$$$$
>  <molecule>
C[C@]12C(=O)C=CCC1=CC[C@@H]1[C@@H]2CC[C@]2(O)C(=O)O[C@@]3(C)[C@H]4C[C@@]5(C)[C@@H]6C(=O)[C@@]1(OC[C@@]5(O)C(=O)O4)O[C@@]632

>  <unit abbreviation>
%

>  <assay result>
97.3

$$$$
>  <molecule>
C=C1C(=O)O[C@@H]2C[C@@]1(C)[C@@H]1C(=O)[C@@]3(O)O[C@]14[C@@]2(C)OC(=O)[C@@]4(O)CC[C@H]1[C@H]3CC=C2CC=CC(=O)[C@@]21C

>  <unit abbreviation>
%

>  <assay result>
94.2

$$$$
>  <molecule>
O=C(CCCCCCC(=O)Nc1ccccc1)NO [VORINOSTAT]

>  <unit abbreviation>
%

>  <assay result>
92.5

$$$$
>  <molecule>
C=C1C(=O)O[C@@H]2C[C@@]1(C)[C@@H]1C(=O)[C@@]3(O)O[C@]14[C@@]2(C)OC(=O)[C@@]4(O)CC[C@H]1[C@H]3C[C@@H](O)[C@@]2(Cl)CC=CC(=O)[C@]12C

>  <unit abbreviation>
%

>  <assay result>
98.1

$$$$
>  <molecule>
C[C@]12C(=O)CC=CC1=CC[C@@H]1[C@@H]2CC[C@]2(O)C(=O)O[C@@]3(C)[C@H]4C[C@]5(C)[C@@H](CO[C@]16O[C@@]32[C@H]5C6=O)C(=O)O4

>  <unit abbreviation>
%

>  <assay result>
92.5

$$$$
>  <molecule>
C=C1C(=O)O[C@@H]2C[C@@]1(C)[C@@H]1C(=O)[C@@]3(O)O[C@]14[C@@]2(C)OC(=O)[C@@]4(O)CC[C@H]1[C@H]3C[C@H]2O[C@]23CC=CC(=O)[C@]13C

>  <unit abbreviation>
%

>  <assay result>
90.2

$$$$

Origin of the recorded values: ChEMBL document CHEMBL5120881
